# Test system: Hep 3B2
# assay_text: Cytotoxic activity against human Hep3B cells assessed as growth inhibition after 48 hrs by MTT assay
# Format: functional, cell-based
Kind request: treat 20% as inclusive, so growth inhibition (GI) at 20% or higher is 1 (yes), anything lower is 0 (no).

q: I'd appreciate it if you could say whether `C/C(=C\COc1ccc(/C=C/C=O)cc1)CO` has growth inhibition (GI) at least equal to 20%.
a: 1 (yes)

q: I'd appreciate it if you could say whether CC(/C=C\Oc1ccc(/C=C/CO)cc1)CO (stereo not given) has growth inhibition (GI) at least equal to 20%.
a: 0 (no)

q: I'd appreciate it if you could say whether COC(=O)/C=C/c1ccc(OCCC(C)CO)cc1 (stereo not given) has growth inhibition (GI) at least equal to 20%.
a: 0 (no)

q: I'd appreciate it if you could say whether CC(CO)CCOc1ccc(C=O)cc1 (stereo not given) has growth inhibition (GI) at least equal to 20%.
a: 1 (yes)

q: I'd appreciate it if you could say whether `O=c1[nH]cc(F)c(=O)[nH]1` has growth inhibition (GI) at least equal to 20%.
a: 1 (yes)

q: I'd appreciate it if you could say whether CC(CO)CCOc1ccc(/C=C/C=O)cc1 (stereo not given) has growth inhibition (GI) at least equal to 20%.
a: 1 (yes)

q: I'd appreciate it if you could say whether CC(/C=C\Oc1ccc(CCCO)cc1)CO (single isomer, unassigned; (+)) has growth inhibition (GI) at least equal to 20%.
a: 1 (yes)

q: I'd appreciate it if you could say whether CC(CO)CCOc1ccc(/C=C/CO)cc1 (stereo not given) has growth inhibition (GI) at least equal to 20%.
a: 0 (no)

q: I'd appreciate it if you could say whether `COC(=O)/C=C/c1ccc(OC/C=C(\C)CO)cc1` has growth inhibition (GI) at least equal to 20%.
a: 1 (yes)
